# key: entry, value: IC50
# subject-of-test: human recombinant DPIV enzyme (Homo sapiens)
# Construct: Secreted DPIV (lacking membrane anchor) is enriched from HEK293 cell culture supernatant
# Sequence (P27487 29-766 limits assumed): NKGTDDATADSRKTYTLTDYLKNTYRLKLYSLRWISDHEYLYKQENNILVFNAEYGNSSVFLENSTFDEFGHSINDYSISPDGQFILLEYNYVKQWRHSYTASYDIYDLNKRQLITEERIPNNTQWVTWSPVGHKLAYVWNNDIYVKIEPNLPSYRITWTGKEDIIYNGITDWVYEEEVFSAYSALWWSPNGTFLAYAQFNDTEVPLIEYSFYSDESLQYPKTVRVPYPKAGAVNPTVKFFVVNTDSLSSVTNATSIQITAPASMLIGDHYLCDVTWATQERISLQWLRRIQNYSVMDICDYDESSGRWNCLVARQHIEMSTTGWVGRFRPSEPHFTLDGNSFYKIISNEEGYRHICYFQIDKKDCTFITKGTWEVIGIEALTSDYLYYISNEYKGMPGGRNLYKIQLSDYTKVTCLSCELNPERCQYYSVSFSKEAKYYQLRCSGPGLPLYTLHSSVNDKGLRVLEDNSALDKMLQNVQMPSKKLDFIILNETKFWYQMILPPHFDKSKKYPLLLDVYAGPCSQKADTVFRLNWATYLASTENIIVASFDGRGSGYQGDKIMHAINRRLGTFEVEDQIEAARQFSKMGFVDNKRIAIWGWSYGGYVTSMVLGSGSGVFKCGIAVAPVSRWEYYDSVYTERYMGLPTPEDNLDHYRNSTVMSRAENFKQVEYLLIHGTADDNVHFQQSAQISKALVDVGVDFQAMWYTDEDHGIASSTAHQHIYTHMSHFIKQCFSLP
# assay-explanation: Human Recombinant DPIV Activity Assay (fluorometric end point, Gly-Pro-AMC substrate)
# test-conditions: enriched human recombinant DPIV, Gly-Pro-AMC 0.02 mM, 12 points concentration response curve
Where a name gives a salt, the structure may show the parent alone.
API: value field is a number in nM; no unit string.

Report measured IC50; entry is CC(C)(C)NC(=O)c1cc(Cl)ccc1C[C@H](O)[C@H](N)Cc1ccccc1F [Example 7, Hydrochloride]
134

The record that follows has no IC50 shown yet.
Report measured IC50; entry is COc1ccc(C(=O)NC(C)(C)C)c(C[C@H](O)[C@H](N)Cc2ccccc2F)c1 [Example 6, Hydrochloride]
98

Value source: patent US8076514B2
